assay.overview: Particle size detection of LNP (Brookhaven NanoBrook Omni, DLS)
Type: physicochemical
applied.conditions: LNPs after coating mRNA (luciferase)
# Lookup of reported Particle size keyed by entry
Write the numeric value and follow it with the unit.

| compound | Particle size |
| --- | --- |
| CCCCC/C=C\C/C=C\CCCCCCCC(=O)N(CCCN(C)C)C(C(=O)NCCCCCCCC(=O)OC(CCCCCCCC)CCCCCCCC)C(C)C (stereo not drawn) | 135.8 ± 2.13 nm·days |

Query string: Look up Particle size for this compound: CCCCCCCCC(CCCCCC)COC(=O)CCCCCCC(=O)N(CCCN(C)C)C(C(=O)NCCCCCCCC(=O)OC(CC)CCCCCCCC)C(C)(C)C (stereo not drawn)
Result string: 114 ± 2.51 nm·days

---

assay.overview: Particle size detection of LNP (Brookhaven NanoBrook Omni, DLS)
Format: physicochemical
applied.conditions: LNPs after coating mRNA (luciferase)
Entries whose PDI is below 0.2 take label 1; entries at or above 0.2 take label 0.

Example entries begin here.
| compound | assigned.class |
| --- | --- |
| CCCCCCCC(C)COC(=O)CCCCCCCNC(=O)C(N(CCCN(C)C)C(=O)CCCCCCCCCC(=O)OC(CCCCCC)CCCCCC)C(C)(C)C (stereo not shown) [Lipid 409] | label 0 |
| CCCCCCCCCCCCCC(=O)N(CCCN(C)C)C(C(=S)NCCCCCCCC(=O)OC(CCCCCCCC)CCCCCCCC)C(C)(C)C (stereo not shown) [Lipid 317] | label 0 |
| CCCCCCCCCCCC(=O)N(CCCN(C)C)C(C(=O)NCCCOC(=O)CCCCCCCC)C(C)(C)C (stereo not shown) [Lipid 163] | label 1 |
| CCCCC/C=C\C/C=C\CCCCCCCC(=O)N(CCCN(CC)CC)C(C(=O)NCCCCCCCCCCCCCC)C(C)(C)C (stereo not shown) [Lipid 160] | label 0 |
| CCCCCCCCC(CCCCCCCC)OC(=O)CCCCCCCNC(=O)C(N(CCCN(C)C)C(=O)CCCCCCC(=O)OCC(C)CCCCCCC)C(C)(C)C (stereo not shown) [Lipid 420] | label 0 |

Query string: API: query returns whether the compound falls strictly under 0.2 in PDI. Query: CCCCCCCCCCCCCC(=O)N(CCCN(C)C)C(C(=O)NCCCCCCCC(=O)OC(CCCCCCCC)CCCCCCCC)C(C)(C)C (stereo not shown) [Lipid 174]
Result string: label 1

Query string: API: query returns whether the compound falls strictly under 0.2 in PDI. Query: CCCCCCCCCCCCCC(=O)N(CCCN(C)CCO)C(C(=O)NCCCCCCCCCCCC)C(C)(C)C (stereo not shown) [Lipid 189]
Result string: label 1

---

assay.overview: Particle size detection of LNP (Brookhaven NanoBrook Omni, DLS)
Format: physicochemical
applied.conditions: LNPs after coating mRNA (luciferase)
property: Particle size (nm·days)
Give the number; nm·days is assumed, so skip it.

| compound | Particle size [nm·days] |
| --- | --- |
| CCCCCCCCC(CCCCCCCC)OC(=O)CCCCCCCNC(=O)C(N(CCCN(C)C)C(=O)CCCCCCC(=O)OCC(C)CCCCCCC)C(C)(C)C (stereo not shown) [Lipid 420] | 110.3 |
| CCCCC/C=C\C/C=C\CCCCCCCC(=O)N(CCN(C)CCO)C(C(=O)NCCCCCCCCCCCCCC)C(C)(C)C (stereo not shown) [Lipid 195] | 204.79 |
| CCCCCCCCCCCC(=O)N(CCCN(C)C)C(C(=O)NCCCOC(=O)CCCCCCCC)C(C)(C)C (stereo not shown) [Lipid 163] | 200.94 |
| CCCCCCCC(C)COC(=O)CCCCCCCNC(=O)C(N(CCCN(C)C)C(=O)CCCCCCCCCC(=O)OC(CCCCCC)CCCCCC)C(C)(C)C (stereo not shown) [Lipid 409] | 95 |
| CCCCCCCC/C=C\CCCCCCCCOC(=O)CCC(=O)N(CCCN(CC)CC)C(C(=O)NCCCC(=O)OCCCCCCCC)C(C)(C)C (stereo not shown) [Lipid 226] | 207.34 |

Query string: Look up Particle size for this compound: CCCCCCCCCCCCCC(=O)N(CCCN(C)C)C(C(=O)NCCCCCCCC(=O)OC(CCCCCCCC)CCCCCCCC)C(C)(C)C (stereo not shown) [Lipid 174]
Result string: 202.44

Query string: Look up Particle size for this compound: CCCCCCCC/C=C\CCCCCCCCNC(=O)C(N(CCCN(C)C)C(=O)NCCCCCCCCCCCC)C(C)(C)C (stereo not shown) [Lipid 326]
Result string: 111.42
